- METHOD_NOTES: S. cerevisiae growth inhibition in permissive medium (OD615), pilot counter-assay for S. cerevisiae lifespan shortening project, permissive growth control (AID 705)
- MEASUREMENT_CONTEXT: OD615, 24 h, at 10 µM, stronger effect = higher value
# growth inhibition per entry
READOUT: growth inhibition (%)

{"COMPOUND": "CN1CCN(CCCNC(=O)Cn2ncc3c4ccccc4n(C)c3c2=O)CC1", "EXPERIMENTAL_RESULT": -16.9}
{"COMPOUND": "CCC(C)NC(=O)CS(=O)Cc1nc(-c2cccc(C)c2)oc1C (stereo not given)", "EXPERIMENTAL_RESULT": -12.9}
{"COMPOUND": "CCc1nn(CC(=O)NCCCN2CCc3ccccc3C2)c(=O)c2cc3sccc3n12", "EXPERIMENTAL_RESULT": -2.08}
{"COMPOUND": "O=C1CCC/C1=c1\\s/c(=C\\c2cccnc2)c(=O)n1-c1ccccc1", "EXPERIMENTAL_RESULT": -9.13}
{"COMPOUND": "Cc1ccccc1NC(=O)C1CCCN(S(=O)(=O)c2cnc[nH]2)C1 (stereo not given)", "EXPERIMENTAL_RESULT": -1.35}
